Target: ATP-dependent translocase ABCB1 (Homo sapiens, UniProt P08183)
Assay: Reversal of P-gp mediated multidrug resistance in human DU145-TxR cells overexpressing P-gp assessed as potentiation of paclitaxel-induced cytotoxicity by measuring fold reduction paclitaxel IC50 at 7 uM after 48 hrs by MTT assay relative to parent compound
Type: cell-based
Measured Parameter: fold change (FC)
Returns: the value as a bare number; no unit string appended.

Problem: # query: fold change (FC) | item Cc1cc(C)c(-c2cc(NC(=O)CSCC(=O)NCc3ccc(F)cc3)n(-c3ccccc3)n2)cc1C | system: ATP-dependent translocase ABCB1 (Homo sapiens, UniProt P08183)
Result: 0.3

Problem: Item: Cc1cc(C)c(-c2cc(NC(=O)CSCC(=O)c3ccc4c(c3)Cc3ccccc3-4)n(-c3ccccc3)n2)cc1C Test system: ATP-dependent translocase ABCB1 (Homo sapiens, UniProt P08183) Read-out: fold change (FC) Value: ?
Result: 1

Problem: Any idea what fold change (FC) came out for Cc1cc(C)c(-c2cc(NC(=O)CSc3nnc4c(n3)[nH]c3ccccc34)n(-c3ccccc3)n2)cc1C on ATP-dependent translocase ABCB1 (Homo sapiens, UniProt P08183)?
Result: 3.4

---

Target: P-glycoprotein (ABCB1, mouse MDR3) ATPase (Mus musculus, UniProt P21447)
Sequence (P21447 whole entry): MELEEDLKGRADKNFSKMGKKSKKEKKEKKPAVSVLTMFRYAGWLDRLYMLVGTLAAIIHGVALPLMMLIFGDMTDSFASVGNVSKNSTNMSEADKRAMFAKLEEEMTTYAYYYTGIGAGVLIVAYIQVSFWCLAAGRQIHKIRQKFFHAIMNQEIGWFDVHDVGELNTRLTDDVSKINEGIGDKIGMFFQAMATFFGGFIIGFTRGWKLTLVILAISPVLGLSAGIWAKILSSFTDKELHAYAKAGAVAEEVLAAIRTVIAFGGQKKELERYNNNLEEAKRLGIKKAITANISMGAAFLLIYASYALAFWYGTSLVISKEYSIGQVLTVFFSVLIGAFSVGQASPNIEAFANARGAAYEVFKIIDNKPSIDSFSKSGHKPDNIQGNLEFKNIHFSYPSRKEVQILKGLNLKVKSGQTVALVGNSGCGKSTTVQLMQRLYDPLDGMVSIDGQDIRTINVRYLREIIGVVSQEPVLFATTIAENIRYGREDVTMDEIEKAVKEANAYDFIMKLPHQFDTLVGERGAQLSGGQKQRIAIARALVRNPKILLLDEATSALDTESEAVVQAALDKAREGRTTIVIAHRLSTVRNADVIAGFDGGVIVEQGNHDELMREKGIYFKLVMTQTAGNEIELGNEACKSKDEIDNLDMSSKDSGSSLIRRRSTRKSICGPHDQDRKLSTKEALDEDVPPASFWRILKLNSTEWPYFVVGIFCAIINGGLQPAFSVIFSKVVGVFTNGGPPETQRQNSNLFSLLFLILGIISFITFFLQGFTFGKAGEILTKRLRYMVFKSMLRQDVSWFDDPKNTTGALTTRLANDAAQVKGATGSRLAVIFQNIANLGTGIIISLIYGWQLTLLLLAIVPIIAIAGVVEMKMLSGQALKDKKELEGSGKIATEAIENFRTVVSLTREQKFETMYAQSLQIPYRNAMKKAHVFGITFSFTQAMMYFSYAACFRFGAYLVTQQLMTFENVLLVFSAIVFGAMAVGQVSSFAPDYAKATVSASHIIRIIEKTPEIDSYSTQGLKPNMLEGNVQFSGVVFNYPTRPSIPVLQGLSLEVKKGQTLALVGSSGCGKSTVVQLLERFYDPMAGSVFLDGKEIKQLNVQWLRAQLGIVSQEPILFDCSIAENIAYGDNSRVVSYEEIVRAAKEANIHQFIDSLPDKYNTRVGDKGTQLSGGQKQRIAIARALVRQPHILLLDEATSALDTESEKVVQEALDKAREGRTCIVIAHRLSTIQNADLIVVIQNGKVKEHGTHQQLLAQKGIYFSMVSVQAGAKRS
Experiment: Effect on basal ATPase hydrolysis of recombinant mouse MDR3 expressed in Pichia pastoris measured after 30 mins in presence of NADH by coupled enzyme assay (reference value: 100 +/- 7 %)
Design: scale not given: the % may be the effect or the level left
Details: recombinant mouse MDR3 (P-gp) expressed in Pichia pastoris, read-out: Activity
Measured Parameter: Activity at 0.5 h (%)
Supply the numeric figure in %, leaving out any unit text.

Entry Smiles	Study System	Activity at 0.5 h, %
Cc1cc(C)c(-c2cc(NC(=O)CSCC(=O)c3ccc4c(c3)Cc3ccccc3-4)n(-c3ccccc3)n2)cc1C	P-glycoprotein (ABCB1, mouse MDR3) ATPase (Mus musculus, UniProt P21447)	105
Cc1cc(C)c(-c2cc(NC(=O)CSc3n[nH]c(C4CC4)n3)n(-c3ccccc3)n2)cc1C	P-glycoprotein (ABCB1, mouse MDR3) ATPase (Mus musculus, UniProt P21447)	95
Cc1cc(C)c(-c2cc(NC(=O)CSCC(=O)NCc3ccc(F)cc3)n(-c3ccccc3)n2)cc1C	P-glycoprotein (ABCB1, mouse MDR3) ATPase (Mus musculus, UniProt P21447)	143
Cc1cc(C)c(-c2cc(NC(=O)CSCC(=O)N3c4ccccc4CCc4ccccc43)n(-c3ccccc3)n2)cc1C	P-glycoprotein (ABCB1, mouse MDR3) ATPase (Mus musculus, UniProt P21447)	88

Query compound follows.
Problem: Bench note: what Activity at 0.5 h did Cc1cc(C)c(-c2cc(NC(=O)CSc3nnc4c(n3)[nH]c3ccccc34)n(-c3ccccc3)n2)cc1C show?
Result: 101

---

Biological target: ATP-dependent translocase ABCB1 (Homo sapiens, UniProt P08183)
Experiment: Inhibition of P-gp overexpressed in human DU145-TxR cells assessed as increase in intracellular compound accumulation after 2.5 hrs in presence of tariquidar by LC-MS/MS analysis
Type: cell-based
Measured Parameter: inhibition (INH)

Known inhibition (INH) results, listed for orientation:
Entry Smiles	Result
Cc1cc(C)c(-c2cc(NC(=O)CSCC(=O)Nc3ccc4ncsc4c3)n(-c3ccccc3)n2)cc1C	Active
COc1cc(NC(=O)CSCC(=O)Nc2cc(-c3cc(C)c(C)cc3C)nn2-c2ccccc2)cc(OC)c1OC	Active
Cc1cc(C)c(-c2cc(NC(=O)CSCC(=O)NC34CC5CC(CC(C5)C3)C4)n(-c3ccccc3)n2)cc1C	Not Active
Cc1cc(C)c(-c2cc(NC(=O)CSCC(=O)NCc3ccc(F)cc3)n(-c3ccccc3)n2)cc1C	Active

Okay, now this compound:
Problem: Requested field: inhibition (INH). Item: Cc1cc(C)c(-c2cc(NC(=O)CSCC(=O)NC(c3ccccc3)c3ccccc3)n(-c3ccccc3)n2)cc1C
Result: Not Active

---

Target: ATP-dependent translocase ABCB1 (Homo sapiens, UniProt P08183)
Test: Inhibition of P-gp overexpressed in human DU145-TxR cells assessed as increase in cellular accumulation of calcein AM at 2 uM pretreated followed by calcein AM addition by fluorescence imaging analysis
Type: cell-based
Measured Parameter: inhibition (INH)

Entry Smiles	inhibition (INH)
Cc1cc(C)c(-c2cc(NC(=O)CSCC(=O)NCc3ccc(F)cc3)n(-c3ccccc3)n2)cc1C	Active
Cc1cc(C)c(-c2cc(NC(=O)CSCC(=O)NC34CC5CC(CC(C5)C3)C4)n(-c3ccccc3)n2)cc1C	Not Active
Cc1cc(C)c(-c2cc(NC(=O)CSc3nnc4c(n3)[nH]c3ccccc34)n(-c3ccccc3)n2)cc1C	Active
Cc1cc(C)c(-c2cc(NC(=O)CSCC(=O)Nc3ccc4ccccc4c3)n(-c3ccccc3)n2)cc1C	Active
Cc1cc(C)c(-c2cc(NC(=O)CSc3cccc(NC(=O)c4cncc(Br)c4)c3)n(-c3ccccc3)n2)cc1C	Active

Problem: Hi! What's the reported inhibition (INH) for Cc1cc(C)c(-c2cc(NC(=O)CSc3n[nH]c(C4CC4)n3)n(-c3ccccc3)n2)cc1C on ATP-dependent translocase ABCB1 (Homo sapiens, UniProt P08183)?
Result: Active

Problem: Can you look up inhibition (INH) on ATP-dependent translocase ABCB1 (Homo sapiens, UniProt P08183) for COc1cc(NC(=O)CSCC(=O)Nc2cc(-c3cc(C)c(C)cc3C)nn2-c2ccccc2)cc(OC)c1OC ?
Result: Active

Problem: Quick check: inhibition (INH) on ATP-dependent translocase ABCB1 (Homo sapiens, UniProt P08183), item Cc1cc(C)c(-c2cc(NC(=O)CSCC(=O)c3ccc4c(c3)Cc3ccccc3-4)n(-c3ccccc3)n2)cc1C ?
Result: Active

Problem: // map Cc1cc(C)c(-c2cc(NC(=O)CSCC(=O)N3c4ccccc4CCc4ccccc43)n(-c3ccccc3)n2)cc1C to recorded inhibition (INH) (system: ATP-dependent translocase ABCB1 (Homo sapiens, UniProt P08183))
Result: Active

Problem: For ATP-dependent translocase ABCB1 (Homo sapiens, UniProt P08183), provide inhibition (INH) of Cc1cc(C)c(-c2cc(NC(=O)CSCC(=O)NC(c3ccccc3)c3ccccc3)n(-c3ccccc3)n2)cc1C please.
Result: Not Active

Problem: Kindly state the measured inhibition (INH) obtained for Cc1cc(C)c(-c2cc(NC(=O)CSCC(=O)Nc3ccc4ncsc4c3)n(-c3ccccc3)n2)cc1C with ATP-dependent translocase ABCB1 (Homo sapiens, UniProt P08183).
Result: Active

---

System: P-glycoprotein 1 Abcb1a (Mus musculus)
Experiment: Inhibition of 2',3'-(2,2,5,5,-tetramethyl-3-pyrroline-l-oxyl-3-carboxylic acid ester)ATP interaction with mouse MDR3 P-gp expressed in Escherichia coli BL21 (DE3) assessed as reduction in ATP binding from 2 to 1 of nucleotide to mol of protein by ESR analysis (reference value: 1.8 +/- 0.1)
Measured Parameter: Activity
Lab note: jot the number down without any unit.

Entry Smiles	Activity
Cc1cc(C)c(-c2cc(NC(=O)CSCC(=O)Nc3ccc4ccccc4c3)n(-c3ccccc3)n2)cc1C	1.6
Cc1cc(C)c(-c2cc(NC(=O)CSCC(=O)Nc3ccc4ncsc4c3)n(-c3ccccc3)n2)cc1C	1.9
Cc1cc(C)c(-c2cc(NC(=O)CSCC(=O)N3c4ccccc4CCc4ccccc43)n(-c3ccccc3)n2)cc1C	1.8
Cc1cc(C)c(-c2cc(NC(=O)CSc3cccc(NC(=O)c4cncc(Br)c4)c3)n(-c3ccccc3)n2)cc1C	1.7
COc1cc(NC(=O)CSCC(=O)Nc2cc(-c3cc(C)c(C)cc3C)nn2-c2ccccc2)cc(OC)c1OC	1.2
Cc1cc(C)c(-c2cc(NC(=O)CSCC(=O)c3ccc4c(c3)Cc3ccccc3-4)n(-c3ccccc3)n2)cc1C	1.7
Cc1cc(C)c(-c2cc(NC(=O)CSc3nnc4c(n3)[nH]c3ccccc34)n(-c3ccccc3)n2)cc1C	1.8
Cc1cc(C)c(-c2cc(NC(=O)CSCC(=O)NCc3ccc(F)cc3)n(-c3ccccc3)n2)cc1C	1.9
Cc1cc(C)c(-c2cc(NC(=O)CSCC(=O)NC34CC5CC(CC(C5)C3)C4)n(-c3ccccc3)n2)cc1C	1.3
Cc1cc(C)c(-c2cc(NC(=O)CSc3n[nH]c(C4CC4)n3)n(-c3ccccc3)n2)cc1C	1.9

Next item in the queue.
Problem: Any idea what Activity came out for Cc1cc(C)c(-c2cc(NC(=O)CSCC(=O)NC(c3ccccc3)c3ccccc3)n(-c3ccccc3)n2)cc1C on P-glycoprotein 1 Abcb1a (Mus musculus)?
Result: 1.6

---

Molecular target: P-glycoprotein (ABCB1, MDR1) ATPase (Homo sapiens, UniProt P08183)
Sequence (P08183 whole entry): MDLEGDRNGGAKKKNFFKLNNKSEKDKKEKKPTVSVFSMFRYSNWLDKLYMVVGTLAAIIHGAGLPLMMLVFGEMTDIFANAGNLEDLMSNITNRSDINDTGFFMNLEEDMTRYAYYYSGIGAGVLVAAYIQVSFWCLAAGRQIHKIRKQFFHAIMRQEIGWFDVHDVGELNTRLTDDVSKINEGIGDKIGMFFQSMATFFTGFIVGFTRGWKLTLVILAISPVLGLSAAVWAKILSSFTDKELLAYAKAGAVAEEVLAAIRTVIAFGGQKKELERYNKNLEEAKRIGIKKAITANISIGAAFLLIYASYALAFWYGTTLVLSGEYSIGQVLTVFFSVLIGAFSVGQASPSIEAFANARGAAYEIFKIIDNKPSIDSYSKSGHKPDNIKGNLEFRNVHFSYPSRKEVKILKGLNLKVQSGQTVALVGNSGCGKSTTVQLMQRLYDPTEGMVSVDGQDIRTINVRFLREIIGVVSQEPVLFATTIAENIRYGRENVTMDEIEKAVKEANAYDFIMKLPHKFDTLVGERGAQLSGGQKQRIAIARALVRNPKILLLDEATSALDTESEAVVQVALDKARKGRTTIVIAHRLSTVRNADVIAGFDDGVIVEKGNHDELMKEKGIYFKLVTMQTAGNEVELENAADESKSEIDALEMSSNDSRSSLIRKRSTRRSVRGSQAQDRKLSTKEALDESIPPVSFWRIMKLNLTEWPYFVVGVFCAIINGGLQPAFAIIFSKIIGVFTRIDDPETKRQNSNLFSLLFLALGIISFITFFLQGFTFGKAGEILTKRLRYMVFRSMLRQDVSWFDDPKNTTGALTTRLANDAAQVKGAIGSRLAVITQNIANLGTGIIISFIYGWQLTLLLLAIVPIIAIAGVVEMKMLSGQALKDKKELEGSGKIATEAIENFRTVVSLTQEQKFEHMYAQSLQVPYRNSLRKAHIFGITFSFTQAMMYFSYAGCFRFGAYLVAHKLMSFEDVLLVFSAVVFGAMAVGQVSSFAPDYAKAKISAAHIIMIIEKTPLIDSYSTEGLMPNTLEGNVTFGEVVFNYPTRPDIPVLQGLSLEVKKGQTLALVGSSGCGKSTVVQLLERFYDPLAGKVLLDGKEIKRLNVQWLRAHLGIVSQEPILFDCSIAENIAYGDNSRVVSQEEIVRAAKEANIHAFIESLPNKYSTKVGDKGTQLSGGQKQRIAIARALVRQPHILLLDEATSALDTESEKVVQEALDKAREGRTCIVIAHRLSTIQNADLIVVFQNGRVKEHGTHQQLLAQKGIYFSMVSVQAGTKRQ
Test: Effect on basal ATPase hydrolysis of recombinant human MDR1 expressed in Pichia pastoris measured after 30 mins in presence of NADH by coupled enzyme assay (reference value: 100 +/- 5 %)
Set-up: scale not given: the % may be the effect or the level left
Details: recombinant human MDR1 (P-gp) expressed in Pichia pastoris, read-out: Activity
Measured Parameter: Activity at 0.5 h (%)
API: value field is a number in %; no unit string.

Problem: Look up Activity at 0.5 h for this compound: COc1cc(NC(=O)CSCC(=O)Nc2cc(-c3cc(C)c(C)cc3C)nn2-c2ccccc2)cc(OC)c1OC
Result: 89

Problem: What value of Activity at 0.5 h has been reported for the following compound? Cc1cc(C)c(-c2cc(NC(=O)CSc3nnc4c(n3)[nH]c3ccccc34)n(-c3ccccc3)n2)cc1C
Result: 87

Problem: Would you mind telling me what Activity at 0.5 h value was observed for Cc1cc(C)c(-c2cc(NC(=O)CSCC(=O)NCc3ccc(F)cc3)n(-c3ccccc3)n2)cc1C ?
Result: 95

Problem: # query: Activity at 0.5 h of entry Cc1cc(C)c(-c2cc(NC(=O)CSCC(=O)Nc3ccc4ncsc4c3)n(-c3ccccc3)n2)cc1C
Result: 84

Problem: Any idea what its Activity at 0.5 h is? The compound is Cc1cc(C)c(-c2cc(NC(=O)CSCC(=O)N3c4ccccc4CCc4ccccc43)n(-c3ccccc3)n2)cc1C
Result: 83
